Values of pIC50 reported for UniProtKB Q00534 appear below.
Sequence (Q00534 whole entry): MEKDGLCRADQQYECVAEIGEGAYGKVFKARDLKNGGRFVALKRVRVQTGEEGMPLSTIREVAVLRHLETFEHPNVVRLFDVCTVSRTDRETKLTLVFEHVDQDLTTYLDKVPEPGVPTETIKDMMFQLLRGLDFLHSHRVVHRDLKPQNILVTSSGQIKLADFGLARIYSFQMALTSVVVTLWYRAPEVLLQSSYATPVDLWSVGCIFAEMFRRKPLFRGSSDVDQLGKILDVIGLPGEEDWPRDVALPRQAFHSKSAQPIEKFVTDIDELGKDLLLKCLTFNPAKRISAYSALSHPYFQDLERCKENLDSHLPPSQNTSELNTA
Sequence (P24385 whole entry partner): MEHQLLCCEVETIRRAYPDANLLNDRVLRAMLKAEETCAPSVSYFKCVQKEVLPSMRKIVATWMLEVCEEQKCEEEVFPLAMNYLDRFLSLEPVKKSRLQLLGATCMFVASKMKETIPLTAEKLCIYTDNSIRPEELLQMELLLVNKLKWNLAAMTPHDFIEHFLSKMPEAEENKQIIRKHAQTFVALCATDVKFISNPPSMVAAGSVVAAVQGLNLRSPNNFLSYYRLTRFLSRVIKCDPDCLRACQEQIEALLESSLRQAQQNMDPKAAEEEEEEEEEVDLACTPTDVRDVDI
pIC50: −log10 of the molar value.

Data request: Could you share which pIC50 value was measured for CN(C)C(=O)c1cc2cnc(Nc3cncc(-c4csc5c(=O)cc(N6CCOCC6)oc45)c3)nc2n1C1CCCC1 [Compound 19] ?
Data returned: > 6.30

Data request: // query: CN(C)C(=O)c1cc2cnc(Nc3ccc(-c4csc5c(=O)cc(N6CCOCC6)oc45)cn3)nc2n1C1CCCC1 [Compound 8]
Data returned: > 6.30

Data request: // query: CN(C)C(=O)c1cc2cnc(Nc3ccc(-c4csc5c(=O)cc(N6CCN(C(=O)OC(C)(C)C)CC6)oc45)cc3)nc2n1C1CCCC1 [Compound 10]
Data returned: > 6.30

Data request: // query: O=C(O)c1cc2cnc(Nc3ccc(-c4csc5c(=O)cc(N6CCOCC6)oc45)cc3)nc2n1C1CCCC1 [Compound 23]
Data returned: > 6.30

Data request: // query: Cc1nn(-c2ccnc(Nc3ccc(-c4csc5c(=O)cc(N6CCOCC6)oc45)cc3)n2)cc1CN(C)C [Compound 57]
Data returned: > 6.30

Data request: // query: CN(C)C(=O)c1cc2cnc(Nc3cccc(-c4csc5c(=O)cc(N6CCOCC6)oc45)c3)nc2n1C1CCCC1 [Compound 18]
Data returned: > 6.30

Data request: // query: CN(C)C(=O)c1cc2cnc(Nc3csc4c(=O)cc(N5CCOCC5)oc34)nc2n1C1CCCC1 [Compound 12]
Data returned: < 4.35

Data request: // query: Cc1nn(-c2ccnc(Nc3ccc(-c4csc5c(=O)cc(N6CCOCC6)oc45)cc3)n2)cc1CN1CCC1 [Compound 54]
Data returned: < 4.35

Data request: // query: Cc1nn(-c2ccnc(Nc3ccc(-c4csc5c(=O)cc(N6CCNCC6)oc45)cc3)n2)cc1CN1CC(O)C1 [Compound 53]
Data returned: > 6.30

Data request: // query: CN(C)C(=O)c1cc2cnc(Nc3ccc(-c4csc5c(=O)cc(N6CCOCC6)oc45)c(C(=O)O)c3)nc2n1C1CCCC1 [Compound 15]
Data returned: 6.00 to 6.30

Data request: // query: CNC(=O)c1cc2cnc(Nc3ccc(C#Cc4csc5c(=O)cc(N6CCOCC6)oc45)cc3)nc2n1C1CCCC1 [Compound 17]
Data returned: > 6.30

Data request: // query: CN(C)C(=O)c1cc2cnc(Nc3ccc(-c4csc5c(=O)cc(N6CCOCC6)oc45)c(C(=O)O)c3)nc2n1C1CCCC1 [Compound 14]
Data returned: 4.35 to 5.00

Data request: // query: CN(C)C(=O)c1cc2cnc(Nc3ccc(-c4csc5c(=O)cc(N6CCOCC6)oc45)cc3)nc2n1C1CCCC1 [Compound 6]
Data returned: > 6.30

Data request: // query: Cc1nc2c(F)cc(-c3nc(Nc4ccc(-c5csc6c(=O)cc(N7CCOCC7)oc56)cc4)ncc3F)cc2n1C(C)C [Compound 25-1]
Data returned: > 6.30
